Tested on: Z-138
Experiment: Antiproliferative activity against human Z138 cells
Assay type: functional, cell-based
value_type: pIC50
Note: pIC50 values are expressed as the negative base-10 logarithm of concentration in M.

-- ask Look up pIC50 of `CCN1CCN(C[C@@H](O)[C@@H]2Cc3ccccc3CN2)C(=O)c2ccc(C(=O)N3CCC4(CC3)CC(OC)C4)cc21` and report it.
-- reply 8.66

* * *

Target: PRMT5/MEP50 complex (Homo sapiens, UniProt O14744)
Sequence (O14744 whole entry): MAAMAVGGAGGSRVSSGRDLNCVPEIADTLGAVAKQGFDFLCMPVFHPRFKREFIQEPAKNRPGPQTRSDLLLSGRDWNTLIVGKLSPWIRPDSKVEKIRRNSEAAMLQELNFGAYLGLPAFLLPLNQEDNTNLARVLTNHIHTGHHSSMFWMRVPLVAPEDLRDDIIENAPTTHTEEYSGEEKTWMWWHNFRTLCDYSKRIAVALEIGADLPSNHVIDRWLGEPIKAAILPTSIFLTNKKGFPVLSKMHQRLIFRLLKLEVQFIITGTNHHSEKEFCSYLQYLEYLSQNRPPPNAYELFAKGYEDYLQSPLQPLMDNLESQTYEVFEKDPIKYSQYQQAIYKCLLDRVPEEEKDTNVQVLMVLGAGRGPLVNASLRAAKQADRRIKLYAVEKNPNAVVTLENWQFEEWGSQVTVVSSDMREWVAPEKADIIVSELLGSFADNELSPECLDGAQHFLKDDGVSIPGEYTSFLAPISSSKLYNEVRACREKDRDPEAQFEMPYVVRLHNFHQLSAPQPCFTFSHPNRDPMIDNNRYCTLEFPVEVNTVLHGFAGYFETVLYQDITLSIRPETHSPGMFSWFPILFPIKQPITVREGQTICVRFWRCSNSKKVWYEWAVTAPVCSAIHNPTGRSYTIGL
Sequence (Q9BQA1 whole entry, further chain): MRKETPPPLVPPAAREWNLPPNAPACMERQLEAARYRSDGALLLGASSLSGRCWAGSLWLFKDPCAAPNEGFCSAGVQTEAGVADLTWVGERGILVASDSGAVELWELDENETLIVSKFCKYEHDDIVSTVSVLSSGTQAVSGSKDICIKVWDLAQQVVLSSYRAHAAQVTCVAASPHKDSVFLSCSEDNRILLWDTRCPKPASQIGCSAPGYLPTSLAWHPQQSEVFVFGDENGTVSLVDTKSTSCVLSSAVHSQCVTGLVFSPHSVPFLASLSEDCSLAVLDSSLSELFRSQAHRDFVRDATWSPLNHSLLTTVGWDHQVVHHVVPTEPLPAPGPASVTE
Test: Inhibition of PRMT5/MEP50 (unknown origin) using histone H4 peptide as substrate preincubated for 30 mins followed by substrate addition and measured for 60 mins by AlphaScreen analysis
value_type: pIC50
Note: pIC50 values are expressed as the negative base-10 logarithm of concentration in M.

-- ask Given `CC1(C)CN(C[C@@H](O)[C@@H]2Cc3ccccc3CN2)C(=O)c2ccc(C(=O)N3CCC4(CC3)CC4)cc21` , report its pIC50 on PRMT5/MEP50 complex (Homo sapiens, UniProt O14744).
-- reply 8.55
